Assay: Solubility of pharmaceutical (Cl) in hydrophilic solvent system at 37° C, 24 h shaking
Assay type: physicochemical
Settings: organic solvent or mixture; 100% PEG 400, 37° C
Method: Solubility of a pharmaceutical (Cl) is measured by constant shaking for 24 hours an excess amount of powdered pharmaceutical in 10 ml. of a hydrophilic solvent system at 37° C. The solution is filtered and the content of the pharmaceutical is measured. […]
measureName: solubility at 24 h (mg/mL)
Form entry: value (mg/mL) — number only.

The reported value for C#C[C@]1(OC(C)=O)CC[C@H]2[C@@H]3CCC4=C[C@@H](OC(C)=O)CC[C@@H]4[C@H]3CC[C@@]21C [ethynodiol diacetate] in terms of solubility at 24 h is 45.6

====

Assay: Release of pharmaceutical from microsealed silicone delivery device (release rate and kinetics)
Format: physicochemical
Settings: device: 2 parts drug in 2 parts 40% PEG (MW 380-420) in water, Silastic 382 matrix, Silastic tubing
measureName: Release rate (mcg/cm^2 /day)
Form entry: value (mcg/cm^2 /day) — number only.

The reported value for C#C[C@]1(OC(C)=O)CC[C@H]2[C@@H]3CCC4=C[C@@H](OC(C)=O)CC[C@@H]4[C@H]3CC[C@@]21C [ethynodiol diacetate] in terms of Release rate is 315.6

The reported value for COC(=O)C1CC2=CC(=O)CCC2(C)C2CCC3(C)C(CCC34CCC(=O)O4)C12 (stereo not drawn) in terms of Release rate is 63.08

The reported value for CC(=O)OCC(=O)[C@H]1CC[C@H]2[C@@H]3CCC4=CC(=O)CC[C@]4(C)[C@H]3CC[C@]12C [Desoxycorticosterone acetate] in terms of Release rate is 55.1

The reported value for "Cc1ncc([N+](=O)[O-])n1CCO" in terms of Release rate is 4.23

The reported value for "CC(=O)S[C@@H]1CC2=CC(=O)CC[C@]2(C)[C@H]2CC[C@@]3(C)[C@@H](CC[C@@]34CCC(=O)O4)[C@H]12" in terms of Release rate is 18.25

The reported value for "CC(=O)O[C@]1(C(C)=O)CC[C@H]2[C@@H]3CCC4=CC(=O)CC[C@@H]4[C@H]3[C@@H](C)C[C@@]21C" in terms of Release rate is 51.89
